So I've got a bunch of molecules here, and I need their Activity values.
# Tested on: Rattus norvegicus
# test.details: Anti-diabetic activity in normal Wistar rat model assessed as blood glucose level at 10 mg/kg, po followed by treated administered 3 mg/kg orally measured after 60 mins by Oral glucose tolerance test (reference value: 153.74 + /- 3.94 mg/dL)
# Assay type: functional
# measurement.context: 1 h
Respond numerically; units are mg/dL and should not be typed.

Return reported Activity; argument: CC1=C([N+](=O)[O-])C(c2ccc(F)c(F)c2)N=C(N)N1C(=O)CN1CCn2c(nnc2C(F)(F)F)C1 (stereo not given)
117.43

Then what about the molecule CC1=C(C(=O)O)C(c2ccc(F)c(F)c2)N=C(N)N1C(=O)CN1CCn2c(nnc2C(F)(F)F)C1 (stereo not given) ?
113.74

Entry CC1=C(C(=O)O)C(c2ccc(F)c(F)c2)N=C(N)N1C(=O)CN1Cc2cn(S(C)(=O)=O)nc2C1 (stereo not given) please
121.54

Would you mind doing CC1=C([N+](=O)[O-])C(c2ccc(F)c(F)c2)N=C(N)N1C(=O)CN1Cc2cn(S(C)(=O)=O)nc2C1 (stereo not given) as well?
118.35

And CC1=C(C(=O)O)C(c2ccc(F)c(F)c2)N=C(N)N1C(=O)CN1CCCC(N)C1 (stereo not given) ?
108.35
